- Experiment: binders of probe aFST on microarray, primary screen, stem cell growth factor project, biochemical, small-molecule microarray, fluorescence 635/667 (AID 1086);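 also: score merges 667 nm fluorescence with signal-to-noise of each printed compound spot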
- Details: higher = more signal
condition met means recorded composite z-score is 1 or above; condition not met means it is below 1.

Compound	Label class
COc1cc2c(cc1O)C(c1cccs1)N(Cc1sc3ccccc3c1Cl)CC2 (stereo not given)	condition met
CCCCNC(=O)c1ccc(C#C[Si](C(C)C)(C(C)C)C(C)C)c(OC(C)=O)c1	condition not met
C=CC[C@H](OC(=O)Nc1ccc(SC)cc1)c1ccc(OCCO)cc1	condition not met
COc1ccc(C(=O)Nc2cccc(CN3C(=O)[C@]4(O[C@H](CCn5cc([C@H](O)c6ccccc6)nn5)[C@@H]([Si](C)(C)c5ccc(OC)cc5)[C@@H]4C)c4ccccc43)c2)cc1	condition not met
CCCC=C(CCC)[C@@H](NS(=O)(=O)c1cccc2cccnc12)c1ccc(-c2ccccc2)cc1	condition met
CN(C)CCCNC(=O)[C@@H]1c2ccccc2C(=O)N(C2CCCCC2)[C@H]1c1ccc(CO)cc1	condition not met
O=C(N1CCOCC1)[C@@]1(CCS(=O)(=O)c2ccccc2)N=C(c2ccc(OCCCO)cc2)O[C@H]1c1ccccc1	condition met
COc1ccc(NC(=O)O[C@H]2[C@@H]3OC(=O)[C@H](Cc4cccc(Br)c4)C/C=C/C[C@@H](Cc4cccc(Br)c4)C(=O)O[C@H]3[C@@H](OC)O[C@@H]2CO)cc1	condition not met
[N-]=[N+]=NC[C@H](Cc1ccccc1)NC(=O)c1ccccc1	condition not met
O=C1C2C=CC(C(O)c3ccc(I)cc3)N(Nc3ccccc3)C2C(=O)N1c1ccccc1 (stereo not given)	condition met
COC(=O)[C@@]1(Cc2ccccc2CN=[N+]=[N-])N=C(c2ccc(OCCCO)cc2)O[C@H]1c1ccccc1	condition not met
O=C(O)[C@H]1C[C@H]2C(=O)N[C@@H](Cc3ccccc3)C(=O)N2[C@H]1c1cccc(OCCO)c1	condition not met
CCCNC(=O)[C@@]1(Sc2ccc(C)cc2)CC(=O)N(C2CCCCC2)[C@@H]1c1ccc(CO)cc1I	condition not met
[N-]=[N+]=Nc1ccccc1C[C@@]1(C(=O)O)N=C(c2ccc(OCCCO)cc2)O[C@@H]1c1ccccc1N=[N+]=[N-]	condition met
C=CCC(OC(C)=O)[C@@H]1[C@@H](N(Cc2cccc3ccccc23)C(=O)c2cccc3ccccc23)c2cc(OCCCO)ccc2N1C(=O)c1ccc2ccccc2c1 (stereo not given in full)	condition not met

###

- Experiment: modulators of S6 phosphorylation in cells, primary screen, cell-based, A549, cytoblot, luminescence, serum-stimulated (AID 1158);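 also: serum-stimulated A549 lung adenocarcinoma cells; signal is phosphorylated S6 detected by cytoblot immunostaining with HRP secondary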
- Details: A549 phospho-S6 cytoblot, 5 h, higher = more signal
Reported metric: z-score

Line notation	Result
CCCNC(=O)[C@@]1(C)c2ccccc2C(=O)N(Cc2ccccc2)[C@H]1c1ccc(CO)cc1	0.0612
NC(=O)[C@H]1[C@@H]2C(=O)O[C@@H](c3ccccc3)[C@@H](c3ccccc3)N2[C@@H](c2ccc(O)cc2)[C@]12C(=O)Nc1ccccc12	-0.471
C=C(COC)C(=O)CC[C@H](OC(=O)c1cccnc1)c1ccc(CO)o1	-0.262
C[C@]1(C(=O)O)c2ccccc2C(=O)N(Cc2ccc(OC(F)(F)F)cc2)[C@H]1c1ccc(CO)cc1	-0.115
CC(C)C(=C=CC[C@H](O)c1cccc(OCCO)c1)CCO	0.28
COCCOC(=O)N1C(=O)[C@@]2(c3cc(C#CCC(C(=O)OC)C(=O)OC)ccc31)[C@H](C(=O)NC[C@H](O)c1ccccc1)[C@H]1C(=O)O[C@H](c3ccccc3)[C@H](c3ccccc3)N1[C@@H]2c1ccc(O)cc1	0.0648
